- System: L1210 leukemia ip in BDF1 mice, survival T/C
- Method Description: NCI In Vivo Anticancer Drug Screen. Data for tumor model L1210 Leukemia (intraperitoneal) in B6D2F1 (BDF1) mice
- Conditions: endpoint: mean survival time; dose: 200.0 mg/kg/injection; schedule: Q04DX003 (ip); vehicle: Klucel (hydroxypropylcellulose) (HPC); higher = longer survival
Toxic doses and inconclusive results are not listed.
Reported Metric: T/C

>  <Chemical String>
CCOC(=O)c1cc([N+](=O)[O-])oc1C

>  <Recorded Value>
94 % of control

$$$$
>  <Chemical String>
O=C1C=CC(=O)N1Nc1ccccc1

>  <Recorded Value>
102 % of control

$$$$
>  <Chemical String>
O=C(NCCCl)Nc1ccccn1

>  <Recorded Value>
94 % of control

$$$$
>  <Chemical String>
Cc1cc(=O)[nH]c(N/N=C/c2ccco2)n1

>  <Recorded Value>
90 % of control

$$$$

---

- System: L1210 leukemia ip in BDF1 mice, survival T/C
- Method Description: NCI In Vivo Anticancer Drug Screen. Data for tumor model L1210 Leukemia (intraperitoneal) in B6D2F1 (BDF1) mice
- Conditions: endpoint: mean survival time; dose: 200.0 mg/kg/injection; schedule: Q01DX009 (ip); vehicle: saline; higher = longer survival
Inconclusive results and toxic doses are left out.
Known T/C of a selection of molecules
Reported Metric: T/C

>  <Molecule>
O=C(Cl)OCCOCCOC(=O)Cl

>  <Recorded Value>
89 % of control

$$$$
>  <Molecule>
CCCCNC(c1ccc(C=NC(CC)(CO)CO)cc1)C(Br)(Br)Br (stereo not drawn)

>  <Recorded Value>
90 % of control

$$$$
>  <Molecule>
Cc1ccc2c(c1)P(O)(=S)c1cc(F)ccc1O2 (stereo not drawn)

>  <Recorded Value>
110 % of control

$$$$

---

- Test system: L1210 leukemia ip in BDF1 mice, survival T/C
- Method Description: NCI In Vivo Anticancer Drug Screen. Data for tumor model L1210 Leukemia (intraperitoneal) in B6D2F1 (BDF1) mice
- Conditions: endpoint: mean survival time; dose: 200.0 mg/kg/injection; schedule: Q04DX003 (ip); vehicle: saline; higher = longer survival
Toxic doses and inconclusive results are not listed.
Below is a list of entries, each paired with its recorded T/C value.

>  <Compound>
CCO/N=C(/N)N=C(N)N

>  <T/C>
91 % of control

$$$$
>  <Compound>
CC(C)NCCC#N

>  <T/C>
111 % of control

$$$$
>  <Compound>
CCC(C(=O)OC)C1CCN(C)C(=O)C12CO2 (stereo unspecified)

>  <T/C>
97 % of control

$$$$
>  <Compound>
CCCCNC(C)(C)C(SSSC(c1ccco1)C(C)(C)NCCCC)c1ccco1 (stereo unspecified)

>  <T/C>
100 % of control

$$$$
>  <Compound>
COc1cc(NC(C)CCCN2C(=O)c3ccccc3C2=O)c2nc(-c3ccc(Cl)cc3)ccc2c1 (stereo unspecified)

>  <T/C>
90 % of control

$$$$
>  <Compound>
O=[N+]([O-])c1cccc2cccc([N+](=O)[O-])c12

>  <T/C>
98 % of control

$$$$
>  <Compound>
CC(C)NCC(=O)c1ccc(O)c(O)c1

>  <T/C>
109 % of control

$$$$
>  <Compound>
CCNCC#CCNCC

>  <T/C>
98 % of control

$$$$
>  <Compound>
CCOC(=O)/C(=C\c1ccc2c(c1)OCO2)NC(=O)c1ccccc1

>  <T/C>
92 % of control

$$$$
>  <Compound>
NNC(=O)CCCCC(=O)NN

>  <T/C>
97 % of control

$$$$
>  <Compound>
O/N=C(/C(=N/O)c1ccccc1)c1ccccc1.O/N=C(/C(=N/O)c1ccccc1)c1ccccc1.[Cl][Rh][Cl]

>  <T/C>
94 % of control

$$$$

---

- Tested on: L1210 leukemia ip in BDF1 mice, survival T/C
- Method Description: NCI In Vivo Anticancer Drug Screen. Data for tumor model L1210 Leukemia (intraperitoneal) in B6D2F1 (BDF1) mice
- Conditions: endpoint: mean survival time; dose: 400.0 mg/kg/injection; schedule: Q01DX009 (ip); vehicle: Klucel (hydroxypropylcellulose) (HPC); higher = longer survival
Toxic doses and inconclusive results are not listed.

>  <Chemical String>
CCc1ccccc1OS(=O)(=O)c1ccc([N+](=O)[O-])cc1

>  <System Under Test>
L1210 leukemia ip in BDF1 mice, survival T/C

>  <T/C>
102 % of control

$$$$
>  <Chemical String>
O=C(Nc1ccccc1C(F)(F)F)OCCOc1ccc(Cl)cc1

>  <System Under Test>
L1210 leukemia ip in BDF1 mice, survival T/C

>  <T/C>
87 % of control

$$$$
>  <Chemical String>
N#CCc1[nH]nc(N)c1C#N

>  <System Under Test>
L1210 leukemia ip in BDF1 mice, survival T/C

>  <T/C>
96 % of control

$$$$
>  <Chemical String>
CC(C)(C)CC(C)(C)c1ccc(OCCOc2ccc([N+](=O)[O-])cc2N)cc1

>  <System Under Test>
L1210 leukemia ip in BDF1 mice, survival T/C

>  <T/C>
101 % of control

$$$$
>  <Chemical String>
Cc1ccc([N+](=O)[O-])cc1NS(=O)(=O)c1cc(Cl)c(Cl)cc1Cl

>  <System Under Test>
L1210 leukemia ip in BDF1 mice, survival T/C

>  <T/C>
90 % of control

$$$$
>  <Chemical String>
O=c1[nH][nH]c(=O)c2[nH]cnc12

>  <System Under Test>
L1210 leukemia ip in BDF1 mice, survival T/C

>  <T/C>
117 % of control

$$$$
>  <Chemical String>
c1ccc(-c2ccc([Si](c3ccccc3)(c3ccccc3)c3ccccc3)cc2)cc1

>  <System Under Test>
L1210 leukemia ip in BDF1 mice, survival T/C

>  <T/C>
93 % of control

$$$$

---

- System: L1210 leukemia ip in BDF1 mice, survival T/C
- Method Description: NCI In Vivo Anticancer Drug Screen. Data for tumor model L1210 Leukemia (intraperitoneal) in B6D2F1 (BDF1) mice
- Conditions: endpoint: mean survival time; dose: 400.0 mg/kg/injection; schedule: Q01DX001 (ip); vehicle: carboxymethylcellulose (CMC); higher = longer survival
Inconclusive results and toxic doses are left out.
Catalogue of compounds with associated T/C
Reported Metric: T/C

>  <Compound>
Cc1ccc(S(=O)(=O)N2CCc3ccccc3C=C2Br)cc1

>  <Recorded Value>
112 % of control

$$$$
>  <Compound>
CC(c1ccccc1)C(C(=O)O)C(=O)O (stereo not drawn)

>  <Recorded Value>
97 % of control

$$$$
>  <Compound>
O=C1CCCc2c1cc(C1CCCC1)c1ccccc21

>  <Recorded Value>
98 % of control

$$$$
>  <Compound>
O=C(Nc1ccsc1)c1ccccc1

>  <Recorded Value>
90 % of control

$$$$
>  <Compound>
CC1NCc2c(N)nc(N)nc21 (stereo not drawn)

>  <Recorded Value>
98 % of control

$$$$
>  <Compound>
CCCC(C)(O)C(C)(C)C (stereo not drawn)

>  <Recorded Value>
90 % of control

$$$$
>  <Compound>
S=c1nc[nH]c2c1ncn2CCCc1ccccc1

>  <Recorded Value>
95 % of control

$$$$
>  <Compound>
CCCCCCCCCCSCCSCCCCCCCCCC

>  <Recorded Value>
95 % of control

$$$$
